tested on: Saccharomyces cerevisiae; assay: protein stability index of tFT-peptide fusion (C-terminal peptide) (PSI (0-1 scale)); higher = more stable (slower turnover); details: genetic background: doa10 deletion; temperature: 30 C;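 also: PSI is a weighted mean of sequencing reads over stability bins, variants kept only with over 10 reads, mCherry proximal and sfGFP distal, peptide attached via GGGS linker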
Label scheme for protein stability index: lower than 0.3 is no, 0.3 and above is yes.

Example cases with answers are listed next.
Sequence Entry: VVRAVLCVCASV
Answer Label: yes
--
Sequence Entry: TNEWMDVKVFCY
Answer Label: yes
--
Sequence Entry: LHIHGAGIVCAG
Answer Label: yes
--
Sequence Entry: VVPWLGYVSCFS
Answer Label: yes
--
Sequence Entry: QGPHISQYRTHR
Answer Label: yes

QUERY: API: above_or_equal(metric=protein stability index, cutoff=0.3) for item PLRRPPPRPPWP
RESULT: yes

QUERY: Same question for APLLPPALALTC please.
RESULT: yes

QUERY: Same question for VLLCGCVWLWWG please.
RESULT: yes

QUERY: Same question for FLPLLFFFFFRF please.
RESULT: yes

QUERY: Same question for SIRVIVAVRNIS please.
RESULT: no
